system: Pseudomonas aeruginosa FADDI-PA01; format: cell-based; details: FADDI-
Where a SMILES comes first, the peptide text is derived from it. Bridges are numbered along the chain shown (N, C = ends). [ ]: non-standard residue; d: D form. The star is where a group is joined. X27 = O=C(c1sc2ccccc2c1Cl)*; X21 = O=C(c1cnc(Cl)cc1Cl)*; Dab = NCC[C@H](N)C(=O)O; Abu = CC[C@H](N)C(=O)O; Dap = NC[C@H](N)C(=O)O
Readout label: Minimum inhibitory concentration

{"Molecule": "CC[C@@H]1NC(=O)[C@@H](CC(C)C)NC(=O)[C@H](CCN)NC(=O)[C@@H](NC(=O)[C@H](CN)NC(=O)[C@@H](NC(=O)[C@H](CCN)NC(=O)c2cnc(Cl)cc2Cl)[C@@H](C)O)CCNC(=O)[C@H]([C@@H](C)O)NC(=O)[C@H](CCN)NC(=O)[C@H](CCN)NC1=O [Compound 2] (X21-[Dab]T[Dap][Dab][Dab][dL][Abu][Dab][Dab]T; lactam 4-C)", "Minimum inhibitory concentration": "0.5 µg/mL"}

Next, consider the following molecule.
Value of measured Minimum inhibitory concentration for the entry CC[C@@H]1NC(=O)[C@@H](CC(C)C)NC(=O)[C@H](CCN)NC(=O)[C@@H](NC(=O)[C@H](CN)NC(=O)[C@@H](NC(=O)[C@H](CCN)NC(=O)c2sc3ccccc3c2Cl)[C@@H](C)O)CCNC(=O)[C@H]([C@@H](C)O)NC(=O)[C@H](CCN)NC(=O)[C@H](CCN)NC1=O [Compound 61] (X27-[Dab]T[Dap][Dab][Dab][dL][Abu][Dab][Dab]T; lactam 4-C) : <0.125 µg/mL

====

Listing: Minimum inhibitory concentration of selected molecules
Tested on: Enterobacter cloacae FADDI-EC006
Type: cell-based
Conditions: E. cloacae FADDI-EC006; CAMHB broth microdilution
Description: MICs of the lipopeptides (trifluoroacetic acid salt, TFA) were determined by broth microdilution in cation-adjusted Mueller-Hinton broth (CAMHB) (Oxoid Australia, Thebarton, SA, Australia) according to the Clinical and Laboratory Standards Institute protocol (Clinical and Laboratory Standards Institute, Performance standards for antimicrobial susceptibility testing; twentyforth informational supplement M100-S24. Wayne, Pa., 2014). Polymyxin B sulphate was employed as the control. […]
Where a SMILES comes first, the peptide text is derived from it. Bridges are numbered along the chain shown (N, C = ends). [ ]: non-standard residue; d: D form. The star is where a group is joined. Indazole3carbonyl = O=C(c1n[nH]c2ccccc12)*; X14 = O=C(c1ccc(C(F)(F)F)cn1)*; X52 = O=C(c1nc2ccccc2s1)*; Dab = NCC[C@H](N)C(=O)O; Abu = CC[C@H](N)C(=O)O; Dap = NC[C@H](N)C(=O)O
Record the value in µg/mL, omitting the unit from your answer.

// solved cases for Minimum inhibitory concentration follow
{"Molecule": "CC[C@@H]1NC(=O)[C@@H](CC(C)C)NC(=O)[C@H](CCN)NC(=O)[C@@H](NC(=O)[C@H](CN)NC(=O)[C@@H](NC(=O)[C@H](CCN)NC(=O)c2nc3ccccc3s2)[C@@H](C)O)CCNC(=O)[C@H]([C@@H](C)O)NC(=O)[C@H](CCN)NC(=O)[C@H](CCN)NC1=O [Compound 70] (X52-[Dab]T[Dap][Dab][Dab][dL][Abu][Dab][Dab]T; lactam 4-C)", "Minimum inhibitory concentration, µg/mL": 0.25}
{"Molecule": "CC[C@@H]1NC(=O)[C@@H](CC(C)C)NC(=O)[C@H](CCN)NC(=O)[C@@H](NC(=O)[C@H](CN)NC(=O)[C@@H](NC(=O)[C@H](CCN)NC(=O)c2ccc(C(F)(F)F)cn2)[C@@H](C)O)CCNC(=O)[C@H]([C@@H](C)O)NC(=O)[C@H](CCN)NC(=O)[C@H](CCN)NC1=O [Compound 38] (X14-[Dab]T[Dap][Dab][Dab][dL][Abu][Dab][Dab]T; lactam 4-C)", "Minimum inhibitory concentration, µg/mL": 0.25}

Okay, now this molecule:
// CC[C@@H]1NC(=O)[C@@H](CC(C)C)NC(=O)[C@H](CCN)NC(=O)[C@@H](NC(=O)[C@H](CN)NC(=O)[C@@H](NC(=O)[C@H](CCN)NC(=O)c2n[nH]c3ccccc23)[C@@H](C)O)CCNC(=O)[C@H]([C@@H](C)O)NC(=O)[C@H](CCN)NC(=O)[C@H](CCN)NC1=O [Compound 54] (Indazole3carbonyl-[Dab]T[Dap][Dab][Dab][dL][Abu][Dab][Dab]T; lactam 4-C) : Minimum inhibitory concentration value = 0.5

====

tested on: Pseudomonas aeruginosa FADDI-PA01; format: cell-based; conditions: FADDI-
Where a SMILES comes first, the peptide text is derived from it. Bridges are numbered along the chain shown (N, C = ends). [ ]: non-standard residue; d: D form. The star is where a group is joined. X22 = Cn1c(C(=O)*)cc2ccccc21; X27 = O=C(c1sc2ccccc2c1Cl)*; Dab = NCC[C@H](N)C(=O)O; Dap = NC[C@H](N)C(=O)O
Let's look at some compounds and their measured Minimum inhibitory concentration.
Report the figure in µg/mL without appending any unit label.

{"Compound": "CC(C)C[C@H]1NC(=O)[C@H](CCN)NC(=O)[C@@H](NC(=O)[C@H](CN)NC(=O)[C@@H](NC(=O)[C@H](CCN)NC(=O)c2sc3ccccc3c2Cl)[C@@H](C)O)CCNC(=O)[C@H]([C@@H](C)O)NC(=O)[C@H](CCN)NC(=O)[C@H](CCN)NC(=O)[C@H]([C@@H](C)O)NC1=O [Compound 68] (X27-[Dab]T[Dap][Dab][Dab][dL]T[Dab][Dab]T; lactam 4-C)", "Readout label": "Minimum inhibitory concentration", "Measured number": 0.5}

--- query ---
Record summary for CC(C)C[C@H]1NC(=O)[C@H](CCN)NC(=O)[C@@H](NC(=O)[C@H](CN)NC(=O)[C@@H](NC(=O)[C@H](CCN)NC(=O)c2cc3ccccc3n2C)[C@@H](C)O)CCNC(=O)[C@H]([C@@H](C)O)NC(=O)[C@H](CCN)NC(=O)[C@H](CCN)NC(=O)[C@H]([C@@H](C)O)NC1=O [Compound 64] (X22-[Dab]T[Dap][Dab][Dab][dL]T[Dab][Dab]T; lactam 4-C) : reported Minimum inhibitory concentration = 0.5

====

Below: a set of entries, each annotated with reported Minimum inhibitory concentration.
test system: Klebsiella pneumoniae Kp BM1; format: cell-based; details: Kp BM1
Where a SMILES comes first, the peptide text is derived from it. Bridges are numbered along the chain shown (N, C = ends). [ ]: non-standard residue; d: D form. The star is where a group is joined. Benzofuran(2-CO) = O=C(c1cc2ccccc2o1)*; X22 = Cn1c(C(=O)*)cc2ccccc21; X1 = O=C(c1ncc(Cl)cc1Cl)*; X7 = O=C(c1nc2ccccc2o1)*; Dab = NCC[C@H](N)C(=O)O; Abu = CC[C@H](N)C(=O)O; Dap = NC[C@H](N)C(=O)O
The response must be a number in µg/mL with no trailing unit.

# count of solved cases: 4
{"Compound": "C[C@@H]1NC(=O)[C@@H](Cc2ccccc2)NC(=O)[C@H](CCN)NC(=O)[C@@H](NC(=O)[C@H](CN)NC(=O)[C@@H](NC(=O)[C@H](CCN)NC(=O)c2ncc(Cl)cc2Cl)[C@@H](C)O)CCNC(=O)[C@H]([C@@H](C)O)NC(=O)[C@H](CCN)NC(=O)[C@H](CCN)NC1=O [Compound 9] (X1-[Dab]T[Dap][Dab][Dab][dF]A[Dab][Dab]T; lactam 4-C)", "Minimum inhibitory concentration / µg/mL": 0.25}
{"Compound": "CC(C)C[C@H]1NC(=O)[C@H](CCN)NC(=O)[C@@H](NC(=O)[C@H](CN)NC(=O)[C@@H](NC(=O)[C@H](CCN)NC(=O)c2cc3ccccc3n2C)[C@@H](C)O)CCNC(=O)[C@H]([C@@H](C)O)NC(=O)[C@H](CCN)NC(=O)[C@H](CCN)NC(=O)[C@H]([C@@H](C)O)NC1=O [Compound 64] (X22-[Dab]T[Dap][Dab][Dab][dL]T[Dab][Dab]T; lactam 4-C)", "Minimum inhibitory concentration / µg/mL": 0.5}
{"Compound": "CC[C@@H]1NC(=O)[C@@H](CC(C)C)NC(=O)[C@H](CCN)NC(=O)[C@@H](NC(=O)[C@H](CN)NC(=O)[C@@H](NC(=O)[C@H](CCN)NC(=O)c2cc3ccccc3o2)[C@@H](C)O)CCNC(=O)[C@H]([C@@H](C)O)NC(=O)[C@H](CCN)NC(=O)[C@H](CCN)NC1=O [Compound 92] ({Benzofuran(2-CO)}-[Dab]T[Dap][Dab][Dab][dL][Abu][Dab][Dab]T; lactam 4-C)", "Minimum inhibitory concentration / µg/mL": 0.5}
{"Compound": "CC(C)C[C@H]1NC(=O)[C@H](CCN)NC(=O)[C@@H](NC(=O)[C@H](CN)NC(=O)[C@@H](NC(=O)[C@H](CCN)NC(=O)c2ncc(Cl)cc2Cl)[C@@H](C)O)CCNC(=O)[C@H]([C@@H](C)O)NC(=O)[C@H](CCN)NC(=O)[C@H](CCN)NC(=O)[C@H](C)NC1=O [Compound 10] (X1-[Dab]T[Dap][Dab][Dab][dL]A[Dab][Dab]T; lactam 4-C)", "Minimum inhibitory concentration / µg/mL": 4}

Would you kindly look at the next entry?
For reference, reported Minimum inhibitory concentration for CC[C@@H]1NC(=O)[C@@H](CC(C)C)NC(=O)[C@H](CCN)NC(=O)[C@@H](NC(=O)[C@H](CN)NC(=O)[C@@H](NC(=O)[C@H](CCN)NC(=O)c2nc3ccccc3o2)[C@@H](C)O)CCNC(=O)[C@H]([C@@H](C)O)NC(=O)[C@H](CCN)NC(=O)[C@H](CCN)NC1=O [Compound 74] (X7-[Dab]T[Dap][Dab][Dab][dL][Abu][Dab][Dab]T; lactam 4-C) stands at 0.25
